Cited source: ChEMBL document CHEMBL1145119

biological target: Cannabinoid receptor 2 (Homo sapiens); assay: Binding affinity against human CB2 receptor by using CHO-hCB2 transfected cell membrane [3H]WIN-55212-2 as radioligand at 10 uM
Field: inhibition. Provide a value for each of the compounds that follow.
One number for each entry, in %.

Examples with answers:
**Q:** Reported inhibition, compound CCCCCCCCCCCCCCCC(=O)NC : ____
**A:** 8

**Q:** Reported inhibition, compound CCCCCCCCCCCCCCCC(=O)NC1CCCCC1 : ____
**A:** 8

**Q:** Reported inhibition, compound CCCCCCCCCCCCCCCC(=O)OCCBr : ____
**A:** 2

**Q:** Reported inhibition, compound CCCCCCCCCCCCCCCC(=O)OCCCl : ____
**A:** 6

**Q:** Reported inhibition, compound CCCCCCCCCCCCCCCC(=O)OCc1ccccc1 : ____
**A:** 5

**Q:** Reported inhibition, compound CCCCCCCCCCCCCCCC(=O)OC : ____
**A:** 14

Can you give me inhibition for all of these, one by one?
1. CCCCCCCCCCCCCCCNC(=O)CCO
2. C=CCOC(=O)CCCCCCCCCCCCCCC

**A:**
[3, 1]

Can you give me inhibition for all of these, one by one?
1. CCCCCCCCCCCCCCCC(=O)OC1CCCCC1 [CYCLOHEXYL PALMITATE]
2. CCCCCCCCCCCCCCCC(=O)NCCO
3. CCCCCCCCCCCCCCCC(=O)OC(C)(C)C
4. CCCCCCCCCCCCCCCCOC(=O)CC [HEXADECYLPROPIONATE]
5. CCCCCCCCCCCCCCCC(=O)OC(C)C
6. CCCCCCCCCCCCCCCC(=O)NC(C)C
7. CCCCCCCCCCCCCCCCOC(C)=O

**A:**
1: 6; 2: 14; 3: 14; 4: 2; 5: 0.5; 6: 12; 7: 9

---

Biological target: Fatty-acid amide hydrolase 1 (Rattus norvegicus)
Sequence (whole entry): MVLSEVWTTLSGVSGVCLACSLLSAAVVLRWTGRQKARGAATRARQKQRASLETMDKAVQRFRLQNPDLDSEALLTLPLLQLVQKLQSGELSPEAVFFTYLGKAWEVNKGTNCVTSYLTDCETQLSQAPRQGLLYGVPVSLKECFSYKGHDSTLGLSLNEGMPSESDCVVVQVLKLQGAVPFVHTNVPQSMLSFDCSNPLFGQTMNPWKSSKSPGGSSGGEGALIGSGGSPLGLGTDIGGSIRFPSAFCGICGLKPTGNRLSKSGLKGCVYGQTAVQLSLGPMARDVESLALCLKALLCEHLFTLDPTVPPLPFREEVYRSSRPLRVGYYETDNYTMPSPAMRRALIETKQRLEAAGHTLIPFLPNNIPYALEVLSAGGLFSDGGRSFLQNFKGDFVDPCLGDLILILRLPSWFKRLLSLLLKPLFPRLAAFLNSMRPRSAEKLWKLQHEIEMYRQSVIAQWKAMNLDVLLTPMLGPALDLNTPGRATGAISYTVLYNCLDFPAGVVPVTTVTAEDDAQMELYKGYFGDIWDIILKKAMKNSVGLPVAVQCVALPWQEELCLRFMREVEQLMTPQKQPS
Assay: Inhibition of fatty acid amide hydrolase (FAAH) from rat brain homogenates at 100 uM
Type: tissue-based
Field: inhibition. Provide a value for each of the molecules that follow.

**Q:** What measured inhibition is associated with CCCCCCCCCCCCCCCCOC(C)=O on Fatty-acid amide hydrolase 1 (Rattus norvegicus)?
**A:** < 0%

**Q:** What measured inhibition is associated with CCCCCCCCCCCCCCCC(=O)OC(C)(C)C on Fatty-acid amide hydrolase 1 (Rattus norvegicus)?
**A:** < 0%

**Q:** What measured inhibition is associated with CCCCCCCCCCCCCCCC(=O)OC(C)C on Fatty-acid amide hydrolase 1 (Rattus norvegicus)?
**A:** < 0%

The record that follows has no inhibition shown yet.
**Q:** What measured inhibition is associated with CCCCCCCCCCCCCCCCOC(=O)CC [HEXADECYLPROPIONATE] on Fatty-acid amide hydrolase 1 (Rattus norvegicus)?
**A:** < 0%
